Where do the numbers come from? From patent US7355055B2.

- test.target: Pancreatic Lipase (Sus scrofa, UniProt P00591)
- Construct: purchased Sigma L-3126
- Sequence (P00591 1-450): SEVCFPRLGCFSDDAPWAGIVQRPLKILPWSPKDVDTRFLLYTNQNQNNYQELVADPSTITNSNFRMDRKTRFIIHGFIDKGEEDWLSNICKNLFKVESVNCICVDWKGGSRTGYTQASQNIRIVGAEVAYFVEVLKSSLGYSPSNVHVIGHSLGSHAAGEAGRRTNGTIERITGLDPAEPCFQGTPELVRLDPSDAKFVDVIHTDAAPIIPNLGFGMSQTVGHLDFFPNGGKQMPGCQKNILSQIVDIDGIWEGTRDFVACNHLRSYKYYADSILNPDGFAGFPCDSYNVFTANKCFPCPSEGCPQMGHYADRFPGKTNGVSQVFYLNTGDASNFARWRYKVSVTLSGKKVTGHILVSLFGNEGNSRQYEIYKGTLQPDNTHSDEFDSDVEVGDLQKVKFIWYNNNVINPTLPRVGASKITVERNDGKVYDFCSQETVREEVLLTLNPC
- assay.comment: Pancreatic lipase inhibition assay (p-nitro phenol palmitate substrate, 96-well)
- Assay type: biochemical
- experimental.context: pancreatic lipase, compound 100 μM, 37° C., OD 405 nm
inhibition at 100 µM by entry:

[
  {
    "structure.smiles.string": "CCCCCCCCCCCC1=C(OC(=O)c2ccccc2Br)C(=O)C=C(OC(=O)c2ccccc2Br)C1=O",
    "inhibition at 100 µM (%)": 100
  },
  {
    "structure.smiles.string": "CCCCCCCCCCCC1=C(OC(=O)c2ccccc2F)C(=O)C=C(OC(=O)c2ccccc2F)C1=O",
    "inhibition at 100 µM (%)": 99.6
  },
  {
    "structure.smiles.string": "CCCCCCCCCCCC1=C(OC(=O)c2ccc(Cl)cc2)C(=O)C=C(OC(=O)c2ccc(Cl)cc2)C1=O",
    "inhibition at 100 µM (%)": 98.4
  },
  {
    "structure.smiles.string": "CCCCCCCCCCCC1=C(OC(=O)c2ccccc2Cl)C(=O)C=C(OC(=O)c2ccccc2Cl)C1=O",
    "inhibition at 100 µM (%)": 100
  }
]
